Cited source for all entries: paper PMC8041284

Biological target: BTK (Homo sapiens, UniProt Q06187)
Sequence (Q06187 402-655 limits assumed): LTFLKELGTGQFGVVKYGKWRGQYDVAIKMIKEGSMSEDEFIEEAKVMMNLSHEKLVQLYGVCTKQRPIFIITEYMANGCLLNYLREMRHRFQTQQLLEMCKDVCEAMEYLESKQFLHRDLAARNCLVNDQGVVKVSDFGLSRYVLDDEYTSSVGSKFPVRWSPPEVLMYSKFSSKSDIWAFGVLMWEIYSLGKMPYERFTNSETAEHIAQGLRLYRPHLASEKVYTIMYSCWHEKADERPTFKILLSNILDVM
Experiment: biochemical
Conditions: read-out: BTK inhibition (%), 0.75 uM BTK, […] probe 3l, 15 min preincubation
inhibition at 10 µM vs -10%: at or above is label 1, below is label 0.

> print(dat)
                                   molecule    group
1      Cc1ccc(S(=O)(=O)n2c(N)nc3ccccc32)cc1  label 1
2  Cc1cc(-c2ccc(CC(=O)Nc3ccc(-c4cccnc4)cc3)cc2)ccn1  label 0
3  O=C(c1ccccc1)c1ccc2n1CCC2C(=O)O (centres unmarked)  label 0
4                         CSC[C@H](N)C(=O)O  label 1

Let us examine a further case.
Req: Check the entry C[C@H](CCC(=O)O)[C@H]1CC[C@H]2[C@@H]3[C@H](O)C[C@@H]4C[C@H](O)CC[C@]4(C)[C@H]3CC[C@]12C : does inhibition at 10 µM equal or exceed -10%?
Resp: label 1
